The values you see were collected from patent US6353025B1.

- targetOrSystem: β2-adrenoceptor (Rattus norvegicus, UniProt P10608)
- Construct: Uteri of pregnant SD rats (pregnancy day 21) were isolated and longitudinal uterine muscle strips; from tissue; host or cells: longitudinal uterine muscle strips of pregnant SD rats
- Sequence (P10608 whole entry): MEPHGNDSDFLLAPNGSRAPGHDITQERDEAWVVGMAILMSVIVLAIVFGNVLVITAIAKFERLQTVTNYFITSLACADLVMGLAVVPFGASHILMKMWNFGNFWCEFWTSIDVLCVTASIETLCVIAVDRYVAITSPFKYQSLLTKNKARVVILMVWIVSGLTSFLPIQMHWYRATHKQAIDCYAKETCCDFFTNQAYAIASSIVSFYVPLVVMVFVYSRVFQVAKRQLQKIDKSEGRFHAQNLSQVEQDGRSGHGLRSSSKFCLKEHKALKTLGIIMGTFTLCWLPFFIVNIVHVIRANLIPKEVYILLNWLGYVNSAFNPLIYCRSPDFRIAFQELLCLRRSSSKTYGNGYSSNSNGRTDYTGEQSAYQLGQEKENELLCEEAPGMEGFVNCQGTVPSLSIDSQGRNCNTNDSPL
- assayProtocol: β2-adrenoceptor stimulating effects: inhibition of spontaneous contraction of isolated pregnant rat uterus (Magnus method)
- experimentalSetup: isolated uterine muscle strips of pregnant SD rats (pregnancy day 21)
Structures can show the parent of a compound that is named as a salt.
assayReadout: EC50

>>> observedmeasurement("C[C@H](NCCc1cc(Cl)c(NCC(=O)N2CCOCC2)c(Cl)c1)[C@H](O)c1ccc(O)cc1 [Compound 32]")
"1700 nM"

Input line: Please provide the recorded EC50 for C[C@H](NCCc1cc(Cl)c(NCC(=O)O)c(Cl)c1)[C@H](O)c1ccc(O)cc1 [Compound 17] , tested on β2-adrenoceptor (Rattus norvegicus, UniProt P10608).
Output line: 14000 nM

Input line: Lab note: need EC50 with β2-adrenoceptor (Rattus norvegicus, UniProt P10608) for entry CCOC(=O)CNc1c(Cl)cc(CCN[C@@H](C)[C@H](O)c2ccc(O)cc2)cc1Cl [Compound 2, hydrochloride] , please look it up.
Output line: 650 nM

Input line: I'm curious: which EC50 was measured for C[C@H](NCCc1ccc(NCC(=O)O)cc1)[C@H](O)c1ccc(O)cc1 [Compound 18] tested on β2-adrenoceptor (Rattus norvegicus, UniProt P10608)?
Output line: 650 nM

Input line: For the record C[C@H](NCCc1ccc(NCC(=O)O)c(Cl)c1)[C@H](O)c1ccc(O)cc1 [Compound 20] , what value of EC50 is listed for β2-adrenoceptor (Rattus norvegicus, UniProt P10608)?
Output line: 3300 nM

Input line: Can you look up EC50 on β2-adrenoceptor (Rattus norvegicus, UniProt P10608) for C[C@H](NCCc1ccc(N(C)CC(=O)O)cc1)[C@H](O)c1ccc(O)cc1 [Compound 21] ?
Output line: 1600 nM

###

- targetOrSystem: β3-adrenoceptor (Mustela putorius furo)
- Sequence (M3YEU4 entry or part of it): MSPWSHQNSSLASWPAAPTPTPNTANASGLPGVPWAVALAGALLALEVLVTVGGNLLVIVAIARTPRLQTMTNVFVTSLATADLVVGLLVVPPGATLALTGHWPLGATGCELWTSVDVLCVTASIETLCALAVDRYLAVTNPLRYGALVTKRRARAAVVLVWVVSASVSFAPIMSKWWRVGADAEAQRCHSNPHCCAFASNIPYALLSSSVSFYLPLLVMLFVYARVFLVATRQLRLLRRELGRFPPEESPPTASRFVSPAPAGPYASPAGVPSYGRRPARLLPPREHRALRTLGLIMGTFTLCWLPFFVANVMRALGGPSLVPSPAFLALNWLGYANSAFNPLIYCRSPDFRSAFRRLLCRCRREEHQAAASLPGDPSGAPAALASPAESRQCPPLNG
- assayProtocol: β3-adrenoceptor stimulating effects: relaxation of isolated ferret urinary bladder smooth muscle strips (Magnus method)
- experimentalSetup: read-out: EC50 (molar concentration producing 50% relaxation of urinary bladder smooth muscle); isolated male ferret urinary bladder strips; 0% = maximal relaxation after 10^−5 M forskolin
assayReadout: pEC50
pEC50 here is simply -log10 of the concentration when that concentration is written in mol/L.

Input line: Give recorded pEC50 with β3-adrenoceptor (Mustela putorius furo) for the following compound: C[C@H](Cc1ccc(OCC(=O)O)cc1)NC[C@H](O)c1cccc(Cl)c1 [BRL-37344, reference compound]
Output line: 8.80

###

- targetOrSystem: β1-adrenoceptor (Rattus norvegicus, UniProt P18090)
- Construct: Atria of male SD rats (250 to 400 g in body weight) were isolated; from tissue; host or cells: isolated rat atria
- Sequence (P18090 whole entry): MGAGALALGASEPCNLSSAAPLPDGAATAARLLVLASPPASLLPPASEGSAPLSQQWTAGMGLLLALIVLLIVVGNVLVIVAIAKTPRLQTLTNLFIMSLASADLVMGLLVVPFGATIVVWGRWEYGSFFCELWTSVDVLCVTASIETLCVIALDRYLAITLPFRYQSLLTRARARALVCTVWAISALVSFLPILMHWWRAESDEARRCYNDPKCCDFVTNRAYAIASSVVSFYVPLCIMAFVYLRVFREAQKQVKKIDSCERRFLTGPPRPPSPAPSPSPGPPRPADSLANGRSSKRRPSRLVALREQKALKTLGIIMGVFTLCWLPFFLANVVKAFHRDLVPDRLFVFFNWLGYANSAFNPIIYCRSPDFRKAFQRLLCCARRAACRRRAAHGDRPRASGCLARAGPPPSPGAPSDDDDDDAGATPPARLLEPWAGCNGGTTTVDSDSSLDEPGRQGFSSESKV
- assayProtocol: β1-adrenoceptor stimulating effects: increase of heart rate in isolated rat atria (Magnus method)
- Set-up: species or system SD rats
- Experimental: The experiment for measuring β1-adrenoceptor stimulating effects Atria of male SD rats (250 to 400 g in body weight) were isolated and the experiment was conducted according to the Magnus method. […] The cardiac contractility was measured isometrically with a force-displacement transducer, and heart rate was recorded on a rectigram via a tachometer, and the drug was added cumulatively.
Counter-ions that a name gives are not always drawn.
Items are presented alongside their recorded EC50.
The response must be a number in µM with no trailing unit.

These solved cases illustrate the format of a correct answer.
>>> observedmeasurement("C[C@H](NCCc1ccc(NCC(=O)O)c(Cl)c1)[C@H](O)c1ccc(O)cc1")
23
>>> observedmeasurement("C[C@H](NCCc1ccc(N(C)CC(=O)O)cc1)[C@H](O)c1ccc(O)cc1")
34
>>> observedmeasurement("C[C@H](NCCc1ccc(NCC(=O)O)cc1)[C@H](O)c1ccc(O)cc1")
0.083

Input line: Sample CCOC(=O)CNc1c(Cl)cc(CCN[C@@H](C)[C@H](O)c2ccc(O)cc2)cc1Cl [Compound 2, hydrochloride] — what was its EC50?
Output line: 0.05
